test system: SYO-1 complex spheroid growth, percent test/control; assay: Anticancer human tumor SYO-1 cell line growth inhibition [Asc]; conditions: second compound 0.0949 µM; first compound 0.01 µM; stronger effect = lower value;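 further: compound exposure lasted 7 days after spheroids grew 3 days; 100% = DMSO vehicle control viability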
endpointName: viability, T/C

| compound | endpointName | result |
| --- | --- | --- |
| COc1c(OCCCN2CCOCC2)ccc2c3n(c(=NC(=O)c4cnc(N)nc4)nc12)CCN3 + CCN1C(C(=O)NC23CCC(C(=O)O)(CC2)CC3)C(c2cccc(Cl)c2F)C2(C(=O)Nc3cc(Cl)ccc32)C12CCCCC2 | viability, T/C | 86.3% |
| NC1CCC(NC2CC2c2ccccc2)CC1 (stereo unspecified) + CCN1C(C(=O)NC23CCC(C(=O)O)(CC2)CC3)C(c2cccc(Cl)c2F)C2(C(=O)Nc3cc(Cl)ccc32)C12CCCCC2 | viability, T/C | 53.4% |
| Cn1ncnc1[C@H]1c2n[nH]c(=O)c3cc(F)cc(c23)N[C@@H]1c1ccc(F)cc1 + CCN1C(C(=O)NC23CCC(C(=O)O)(CC2)CC3)C(c2cccc(Cl)c2F)C2(C(=O)Nc3cc(Cl)ccc32)C12CCCCC2 | viability, T/C | 7.28% |
| CCN1CCN(Cc2ccc(Nc3ncc(F)c(-c4cc(F)c5nc(C)n(C(C)C)c5c4)n3)nc2)CC1 + CCN1C(C(=O)NC23CCC(C(=O)O)(CC2)CC3)C(c2cccc(Cl)c2F)C2(C(=O)Nc3cc(Cl)ccc32)C12CCCCC2 | viability, T/C | 85% |
| CNC(C)C(=O)NC1CN(S(=O)(=O)c2cccc(S(=O)(=O)N3CCC4CCC(C(=O)NC(c5ccccc5)c5ccccc5)N4C(=O)C(NC(=O)C(C)NC)C3)c2)CCC2CCC(C(=O)NC(c3ccccc3)c3ccccc3)N2C1=O (stereo unspecified) + CCN1C(C(=O)NC23CCC(C(=O)O)(CC2)CC3)C(c2cccc(Cl)c2F)C2(C(=O)Nc3cc(Cl)ccc32)C12CCCCC2 | viability, T/C | 82.6% |
| O=C(c1ccc(F)c(F)c1Nc1ccc(I)cc1F)N1CC(O)([C@@H]2CCCCN2)C1 + CCN1C(C(=O)NC23CCC(C(=O)O)(CC2)CC3)C(c2cccc(Cl)c2F)C2(C(=O)Nc3cc(Cl)ccc32)C12CCCCC2 | viability, T/C | 93.1% |
